- assayed target: T1, hLTBP3-proTGFβ1 (human, UniProt Q9NS15 44-1303; P01137 30-390, limits assumed)
- T1 construct: LLC as m1; Same id used for the cell-made complex in reporter assays; also called human LTBP3-proTGFβ1 complex; LTBP3-ProTGFb1
- T1 sequence (Q9NS15 44-1303 limits assumed, chain 1 of 2): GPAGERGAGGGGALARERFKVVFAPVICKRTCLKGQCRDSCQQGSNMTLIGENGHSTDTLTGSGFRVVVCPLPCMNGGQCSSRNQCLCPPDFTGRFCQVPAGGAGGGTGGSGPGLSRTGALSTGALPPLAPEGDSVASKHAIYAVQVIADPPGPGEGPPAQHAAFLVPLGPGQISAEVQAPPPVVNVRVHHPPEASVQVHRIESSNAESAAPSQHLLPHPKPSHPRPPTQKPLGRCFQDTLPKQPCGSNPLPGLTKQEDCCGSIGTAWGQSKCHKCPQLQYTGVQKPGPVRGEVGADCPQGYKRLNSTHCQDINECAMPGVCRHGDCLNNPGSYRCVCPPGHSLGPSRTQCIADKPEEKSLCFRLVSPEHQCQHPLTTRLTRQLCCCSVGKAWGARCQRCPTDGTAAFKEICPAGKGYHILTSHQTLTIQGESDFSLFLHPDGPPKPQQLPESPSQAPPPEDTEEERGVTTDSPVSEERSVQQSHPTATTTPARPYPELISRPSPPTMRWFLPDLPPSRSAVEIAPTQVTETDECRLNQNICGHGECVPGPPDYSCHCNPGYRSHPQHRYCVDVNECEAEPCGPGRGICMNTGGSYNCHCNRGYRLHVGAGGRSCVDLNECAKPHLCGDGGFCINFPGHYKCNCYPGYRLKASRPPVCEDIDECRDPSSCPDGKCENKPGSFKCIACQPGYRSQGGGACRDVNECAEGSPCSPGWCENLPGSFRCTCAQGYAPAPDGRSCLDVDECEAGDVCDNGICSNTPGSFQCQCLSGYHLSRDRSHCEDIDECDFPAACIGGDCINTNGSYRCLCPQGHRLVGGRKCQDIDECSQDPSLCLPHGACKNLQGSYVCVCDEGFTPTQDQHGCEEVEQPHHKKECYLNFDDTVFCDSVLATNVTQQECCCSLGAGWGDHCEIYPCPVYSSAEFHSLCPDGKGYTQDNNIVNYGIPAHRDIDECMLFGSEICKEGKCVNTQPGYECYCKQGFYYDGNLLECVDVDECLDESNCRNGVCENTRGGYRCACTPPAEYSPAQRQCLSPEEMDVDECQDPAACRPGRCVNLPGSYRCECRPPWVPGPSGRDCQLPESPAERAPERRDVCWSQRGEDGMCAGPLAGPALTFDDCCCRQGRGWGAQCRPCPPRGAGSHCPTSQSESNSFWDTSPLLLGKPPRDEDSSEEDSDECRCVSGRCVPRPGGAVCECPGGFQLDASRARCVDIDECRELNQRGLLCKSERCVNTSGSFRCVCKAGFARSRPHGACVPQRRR
- T1 sequence (P01137 30-390 limits assumed, chain 2 of 2): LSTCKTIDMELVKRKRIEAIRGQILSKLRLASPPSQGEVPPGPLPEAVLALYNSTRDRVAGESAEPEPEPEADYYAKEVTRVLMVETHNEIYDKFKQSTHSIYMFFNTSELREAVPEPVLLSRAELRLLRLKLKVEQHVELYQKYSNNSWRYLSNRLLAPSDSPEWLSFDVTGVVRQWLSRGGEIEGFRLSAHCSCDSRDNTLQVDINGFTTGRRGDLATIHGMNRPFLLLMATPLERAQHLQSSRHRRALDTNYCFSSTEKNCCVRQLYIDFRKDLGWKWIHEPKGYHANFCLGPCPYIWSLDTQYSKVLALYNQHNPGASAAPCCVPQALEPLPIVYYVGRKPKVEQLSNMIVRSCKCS
- run description: MSD-SET, hIgG4
Reported values of pKd for individual entries
Reminder that pKd is minus the log10 of a molar concentration.

Entry Ab32 (antibody, V domains shown) VH: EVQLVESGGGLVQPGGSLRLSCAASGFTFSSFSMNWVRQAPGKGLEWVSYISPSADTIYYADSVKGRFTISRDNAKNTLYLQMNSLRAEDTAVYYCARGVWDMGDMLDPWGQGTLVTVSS VL: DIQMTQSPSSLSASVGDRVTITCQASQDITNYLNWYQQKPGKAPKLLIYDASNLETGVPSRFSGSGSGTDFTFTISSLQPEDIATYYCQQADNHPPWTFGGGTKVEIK : reported pKd = ?
10.59

Query (binder): Ab31 (antibody, V domains shown) VH: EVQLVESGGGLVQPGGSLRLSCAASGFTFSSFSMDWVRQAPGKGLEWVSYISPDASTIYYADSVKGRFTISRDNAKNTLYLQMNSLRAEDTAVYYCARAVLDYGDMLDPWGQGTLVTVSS VL: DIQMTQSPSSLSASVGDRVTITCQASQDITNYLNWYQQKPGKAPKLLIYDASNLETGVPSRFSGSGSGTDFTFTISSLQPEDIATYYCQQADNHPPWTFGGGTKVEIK ; field requested: pKd
10.85

Alright, here's another binder for you.
Can you share its pKd? I mean this binder: Ab33 (antibody, V domains shown) VH: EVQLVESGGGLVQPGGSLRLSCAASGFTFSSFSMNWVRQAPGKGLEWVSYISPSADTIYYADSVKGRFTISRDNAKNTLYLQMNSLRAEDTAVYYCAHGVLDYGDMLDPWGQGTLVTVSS VL: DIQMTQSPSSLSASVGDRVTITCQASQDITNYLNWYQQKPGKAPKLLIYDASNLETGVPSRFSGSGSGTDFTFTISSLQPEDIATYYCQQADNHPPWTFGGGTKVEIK
11.15

Just for reference, patent US20240294623A1 is where these values come from.
